molecular target: IDO1 (Homo sapiens)
Sequence (P14902 whole entry): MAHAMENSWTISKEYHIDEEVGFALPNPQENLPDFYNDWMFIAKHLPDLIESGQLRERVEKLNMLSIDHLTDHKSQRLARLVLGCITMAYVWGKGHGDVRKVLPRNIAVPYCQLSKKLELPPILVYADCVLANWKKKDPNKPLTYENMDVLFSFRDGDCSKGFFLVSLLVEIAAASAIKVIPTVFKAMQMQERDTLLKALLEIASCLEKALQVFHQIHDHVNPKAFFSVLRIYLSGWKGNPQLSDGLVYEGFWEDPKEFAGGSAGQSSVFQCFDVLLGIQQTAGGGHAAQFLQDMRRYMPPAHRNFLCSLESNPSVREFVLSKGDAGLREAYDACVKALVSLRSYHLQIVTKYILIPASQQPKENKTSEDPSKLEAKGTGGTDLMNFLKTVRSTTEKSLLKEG
MEASURE: IC50 (µM)
# value in µM; strip the unit string

Asked: Which IC50 is reported for this molecule? Cc1ccc2c(c1CCC(=O)NCCCC(=O)Nc1ccccc1N)C(=O)C(=O)C(C(C)C)=C2 [Compound 33b]
Given back: 0.58

Asked: Record request: IC50 value, item Cc1ccc2c(c1CCCOS(C)(=O)=O)C(=O)C(=O)C(C(C)C)=C2 [Compound 24a]
Given back: 0.72

Asked: Which IC50 reading was recorded for the molecule Cc1ccc2c(c1CCC(=O)Nc1ccccc1N)C(=O)C(=O)C(C(C)C)=C2 [Compound 27a] ?
Given back: 0.72

Asked: Which IC50 value is on record for Cc1ccc2c(c1CCC(=O)Nc1cccc(F)c1)C(=O)C(=O)C(C(C)C)=C2 [Compound 21a] ?
Given back: 1.33

Asked: Data request, read-out IC50, for Cc1ccc2c(c1CCC(=O)NCCCCCC(=O)Nc1ccccc1N)C(=O)C(=O)C(C(C)C)=C2 [Compound 33d]
Given back: 0.71

Asked: Consider the molecule Cc1ccc2c(c1CCC(O)C(C)(C)O)C(=O)C(=O)C(C(C)C)=C2 (centres unmarked) and give its measured IC50.
Given back: 0.74

Asked: Quick one: IC50 for CC(C)=CCCc1c(C)ccc2c1C(=O)C(=O)C(C(C)C)=C2 ?
Given back: 1.76

Asked: Field request: IC50 | item: Cc1ccc2c(c1CCC(=O)NCCCCC(=O)Nc1ccccc1N)C(=O)C(=O)C(C(C)C)=C2 [Compound 33c]
Given back: 0.55

###

test system: A549 cell line; test: Anti-proliferation assay in A549 cell line (CellTiter-Glo); assay type: cell-based; conditions: Homo sapiens; A549 cells, 48 h, CTG assay
Could you please report measured IC50 for the items listed next?
Record the value in µM, omitting the unit from your answer.

Asked: GET /values?readout=IC50&item= Cc1ccc2c(c1CCCOS(C)(=O)=O)C(=O)C(=O)C(C(C)C)=C2 [Compound 24a]
Given back: 11.8

Asked: Look at this compound and give its reported IC50. Cc1ccc2c(c1CCC(=O)NCc1cn(C)c3ccccc13)C(=O)C(=O)C(C(C)C)=C2 [Compound 21g]
Given back: 12.2

Asked: Please report the recorded IC50 for Cc1ccc2c(c1CCC(=O)Nc1ccc(F)cc1)C(=O)C(=O)C(C(C)C)=C2 [Compound 21b] .
Given back: 14.8

Asked: Value lookup for IC50; key = Cc1ccc2c(c1CCC(=O)Nc1cc(F)ccc1N)C(=O)C(=O)C(C(C)C)=C2 [Compound 27b]
Given back: 9.51

Asked: // query IC50 value for entry Cc1ccc2c(c1CCCOS(N)(=O)=O)C(=O)C(=O)C(C(C)C)=C2 [Compound 24c]
Given back: 11.1

###

Please respond with reported IC50 for every item in the list.
tested on: A549 cell line; experiment: Anti-proliferation assay in A549 cell line (CellTiter-Glo); format: cell-based; details: Homo sapiens; A549 cells, 48 h, CTG assay

Asked: Quick one: IC50 of Cc1ccc2c(c1CCC(=O)Nc1cccc(F)c1)C(=O)C(=O)C(C(C)C)=C2 [Compound 21a] ?
Given back: 13.1 µM

Asked: Fill in: IC50 of Cc1ccc2c(c1CCC(=O)Nc1ccc(F)c(Br)c1)C(=O)C(=O)C(C(C)C)=C2 [Compound 21d] is ___
Given back: 9.31 µM

Asked: Fill blank: measured IC50 of the compound Cc1ccc2c(c1CCC(=O)NCCCCC(=O)Nc1ccccc1N)C(=O)C(=O)C(C(C)C)=C2 [Compound 33c] is ____.
Given back: > 20 µM

Asked: Query: IC50; subject: Cc1ccc2c(c1CCC(=O)Nc1ccc(C(F)(F)F)cc1)C(=O)C(=O)C(C(C)C)=C2 [Compound 21c]
Given back: 7.49 µM

// data source = paper PMC7582476
